Test system: OVCAR-8 ovarian
Protocol Text: NCI-60 one-dose screen, 48 h
Assay Setup: 10 µM unless noted
About 83,000 compounds went through this panel and 20% of them were active in at least one assay; those are over-represented in the sample as a whole. Activity calls are given as the source filed them. How the source made its calls: active means growth percent below 10; inactive means the rest.
# valid calls are true = active, false = inactive; nothing else

For orientation, consider the following solved cases.
CCOP(=O)(O)OP(=O)(O)OCC	false
COc1ccc(OC)c(Nc2nc(-c3c(C)nc4sccn34)cs2)c1	false
O=C(/C=C/c1ccccc1)n1c(-c2ccccc2)nc2ccccc21	false
COc1ccc(C2=NN(C=O)C(c3ccc(OS(=O)(=O)c4ccc(C)cc4)c(OC)c3)C2)cc1 (stereo unspecified)	false
CC1=C(C(=O)Nc2ccc(F)cc2)C(c2ccccc2)C2=C(CC(C)(C)CC2=O)N1 (stereo unspecified)	false
CC[C@H](Nc1nc(N)nc(C2CC2)c1C#N)c1nc2cccc(NCc3ccc(C(=O)NO)cc3)c2c(=O)n1-c1ccccc1	true
F	false
CCOC(=O)c1ccccc1SC(C[N+](=O)[O-])c1ccccc1 (stereo unspecified)	false

Recorded test call requested for COc1cc(C2CC(c3ccc(Nc4ccnc5cc(Cl)ccc45)cc3)=NN2c2ccccc2)cc(OC)c1OC (stereo unspecified)
false

Recorded test call requested for Cc1ccc(NC(=O)c2[nH]c(SCCN(C)C)nc2-c2ccc(F)cc2)cc1Nc1ccc2ncn(C)c(=O)c2c1
false

Recorded test call requested for Cc1ccc(N=CNN=C(N)N)cc1
false
